Source of measurements: patent US20160297892A1

systemTested: T1, Gla-domain deleted recombinant human Protein S (human, UniProt P07225 114-676)
T1 construct: also called hPS-dGla; desGla human Protein S
T1 sequence: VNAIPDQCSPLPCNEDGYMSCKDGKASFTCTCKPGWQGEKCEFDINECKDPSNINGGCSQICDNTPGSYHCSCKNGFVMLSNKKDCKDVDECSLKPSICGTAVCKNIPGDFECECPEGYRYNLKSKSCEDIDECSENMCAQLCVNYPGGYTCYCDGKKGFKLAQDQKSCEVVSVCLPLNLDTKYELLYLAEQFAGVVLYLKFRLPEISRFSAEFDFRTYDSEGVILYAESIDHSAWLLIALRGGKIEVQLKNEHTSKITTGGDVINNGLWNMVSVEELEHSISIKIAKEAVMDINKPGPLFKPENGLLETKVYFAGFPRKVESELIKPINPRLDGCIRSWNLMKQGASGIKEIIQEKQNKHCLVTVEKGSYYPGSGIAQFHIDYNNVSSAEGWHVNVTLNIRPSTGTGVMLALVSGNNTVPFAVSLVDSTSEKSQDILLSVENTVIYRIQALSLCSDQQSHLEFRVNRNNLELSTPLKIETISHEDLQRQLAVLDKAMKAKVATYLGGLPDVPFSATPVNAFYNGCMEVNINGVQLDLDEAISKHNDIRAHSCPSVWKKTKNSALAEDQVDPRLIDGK
experimentSummary: ELISA, calcium-free TBS;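 note: binding of mouse antibodies detected by ELISA with an HRP-conjugated goat anti-mouse IgG secondary and TMB substrate development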
reportedMetric: binding result

- M-hProtS-6F265A1 monoclonal antibody (antibody, mouse IgG1, V domains shown, Tested as antibody purified from hybridoma supernatant; mouse IgG1, kappa) VH: QVQLKESGPGLVAPSQSLSITCTVSGFSLTSYGVHWVRQPPGKGLGWLGVIWAGGRTDYNSALMSRLSISKDNSKSQVFLKMNSLQTDDTAIYYCARDYGNYNYAMDYWGQGISVTVSS VL: ETTVTQSPASLSMAIGEKVTIRCITSTDIDDDVNWYQQKPGEPPKLLISEGNILRPGVPSRFSSSGYGTDFVFSIENMLSEDVGDYYCLQSDTLPTFGGGTKLEIKR: binds
- M-hProtS-2F188A1 monoclonal antibody (antibody, mouse IgG1, V domains shown, Purified from hybridoma supernatant; mouse IgG1, kappa) VH: QVQLQQPGAELVRPGTSVKLSCKASGYTVTSYWMNWIKQRPEQGLEWIGRIDPNDSETLYNQKFKDKVILTVDKSSSTVYIQLSSLTSEDSAVYYCARWAGSGYAMDYWGQGTSVTVSS VL: QIVLTQSPALLSASPGEKVTMTCSASSSVSYMYWYQQKPGSSPKPWIYVTSNLASGVPARFSGSGSGTSYSLTISSMEAEDAATYYCHQWSSDPYTFGGGTKLEIRR: binds
- M-hProtS-6F120A1 monoclonal antibody (antibody, mouse IgG1, V domains shown, Purified from hybridoma supernatant; mouse IgG1, kappa) VH: EIQLQQSGPELVKPGASVKVSCKASGYSFTDYNMYWVKQSHGKSLEWIGYIDPYNGGTSYNQKFKGKATLTVDKSSSTAFMHLNSLTSEDSAVYYCARERDYWYFDVRGAGTTVTVSS VL: DIVLTQSPASLAVSLGQRATISCRASKSVSASGYSYMHWYQQKPGQPPKLLIYLASNLESGVPARFSGSGSGTDFTLNIHPVEEEDAATYYCQHSRELPLTFGAGTKLELKR: binds
